biological target: DRB1*0401 (DR4w4) (Homo sapiens, UniProt P01903+P01911, A100K/A169T/F76Y/I96L/K127E/L162R/M171V/N62H/P40V/Q125Y/R42H/S133A/S149N/S66Y/V115G/V209L/W38E); construct: used as sources of human HLA class II molecules; endogenous in cells; host or cells: PREISS (EBV-transformed homozygous B cell line); experiment: Class II peptide-binding assay, DR4w4; details: read-out: DR4w4 nM; Table VIII, In IC50 Format;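 also: unlabeled test peptides compete with a radiolabeled probe peptide for binding to affinity-purified HLA-DR, with DR amount titrated to capture a small fraction of label, IC50 approximating Kd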
Ends that are not written are not given here.
This section presents sequences with their documented IC50 values.
READOUT: IC50 (nM)

{"CONSTRUCT_SEQUENCE": "DTVKLMYKGQPMTFRLLLV [Peptide 866.01]", "UNITS_TEXT": "nM", "TEST_RESULT": 176}
{"CONSTRUCT_SEQUENCE": "EALVRQGLAKVAYVYKPNN [NASE 101-]", "UNITS_TEXT": "nM", "TEST_RESULT": 978}

---

target: DRB1*0701 (DR7) (Homo sapiens, UniProt P01903+P01911, A100R/A102G/A103Q/D57E/D86V/E43K/F76Y/K127E/L162R/M171V/P40G/Q125H/Q99D/R33Q/R42Y/R54Q/S133A/S66F/T210M/V115G/Y107V/Y59L/Y89S); assay: Class II peptide-binding assay, DR7; conditions: read-out: In IC50 Format DR7; Table VIII
pIC50: −log10 of the molar value. Ends that are not written are not given here.
If the reported pIC50 equals or exceeds 7, assign Criterion met. If not, assign Criterion not met.

{"CONSTRUCT_SEQUENCE": "DVFKELKVHHANENI [Peptide 519.00]", "CLASS_LABEL": "Criterion not met"}
{"CONSTRUCT_SEQUENCE": "VHHANENIFYCPIAIMSALA [Peptide 703.03]", "CLASS_LABEL": "Criterion not met"}
{"CONSTRUCT_SEQUENCE": "KIAKMEKASSVFNVVNS [Peptide 526.01]", "CLASS_LABEL": "Criterion not met"}
{"CONSTRUCT_SEQUENCE": "FFKNIVTPRFFKNIVTPR [Peptide 613.03]", "CLASS_LABEL": "Criterion not met"}
{"CONSTRUCT_SEQUENCE": "KYLEFISEAIIHVLHSR [Peptide 508.01]", "CLASS_LABEL": "Criterion not met"}
{"CONSTRUCT_SEQUENCE": "ARRLKAIYARRLK [Peptide 640.04]", "CLASS_LABEL": "Criterion met"}
{"CONSTRUCT_SEQUENCE": "INSWVESQTNGIIR [Peptide 608.02]", "CLASS_LABEL": "Criterion met"}

---

This section presents substances with their documented IC50 values.
target: DRB1*0701 (DR7) (Homo sapiens, UniProt P01903+P01911, A100R/A102G/A103Q/D57E/D86V/E43K/F76Y/K127E/L162R/M171V/P40G/Q125H/Q99D/R33Q/R42Y/R54Q/S133A/S66F/T210M/V115G/Y107V/Y59L/Y89S); assay: Class II peptide-binding assay, DR7; conditions: read-out: DR7 nM (In IC50 Format); purified HLA DR7;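 also: unlabeled peptides compete with an iodinated probe peptide for binding to affinity-purified HLA-DR at neutral pH, DR amount titered to bind a small tracer fraction, IC50 approximating Kd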
Ends that are not written are not given here.

{"SUBSTANCE": "YAAYVKLTAARKFA-NH2 [Peptide 806.03]", "UNITS_TEXT": "µM", "IC50": 0.0044}
{"SUBSTANCE": "INSWVESQTNGIIRNVLQPS [Peptide 732.01]", "UNITS_TEXT": "µM", "IC50": 0.269}
{"SUBSTANCE": "YARFQFQTTLKAKT-NH2 [Peptide 717.46]", "UNITS_TEXT": "µM", "IC50": 4.17}
{"SUBSTANCE": "YAKFQSQTTLKAKT-NH2 [Peptide 717.40]", "UNITS_TEXT": "µM", "IC50": 3.57}
{"SUBSTANCE": "YARFQSQTTLKAKA-NH2 [Peptide 717.48]", "UNITS_TEXT": "µM", "IC50": 6.25}
{"SUBSTANCE": "YARFQRQTTLKAAA-NH2 [Peptide 717.10]", "UNITS_TEXT": "µM", "IC50": 3.57}
{"SUBSTANCE": "YERFQSQTTLKAKT-NH2 [Peptide 717.39]", "UNITS_TEXT": "µM", "IC50": 8.33}
{"SUBSTANCE": "YARFQSQETLKAKT-NH2 [Peptide 717.17]", "UNITS_TEXT": "µM", "IC50": 1.92}
{"SUBSTANCE": "LLVIVELIPSTSS [Peptide 778.00]", "UNITS_TEXT": "µM", "IC50": 5}
{"SUBSTANCE": "YARFQSATTLKAKT-NH2 [Peptide 717.54]", "UNITS_TEXT": "µM", "IC50": 0.676}
{"SUBSTANCE": "YAAFQSQTTLKAKT-NH2 [Peptide 717.30]", "UNITS_TEXT": "µM", "IC50": 4.17}
{"SUBSTANCE": "YARFQSQTTKKAKT-NH2 [Peptide 717.20]", "UNITS_TEXT": "µM", "IC50": 5}
